- Tested on: Pseudomonas aeruginosa
- method.notes: Antimicrobial activity against Pseudomonas aeruginosa ATCC 27853 after 16 hrs
- Format: functional
- test.parameters: ATCC 27853, 16 h
experimental.endpoint: MIC

Some molecules with recorded MIC:
- chemical.structure: "CC(=O)N[C@@H](CCCCN)CN(CC(=O)N[C@@H](CCCCN)CN(CC(=O)N[C@@H](CCCCN)CN(CC(=O)N[C@@H](CCCCN)CN(CC(=O)N[C@@H](CCCCN)CN(CC(=O)N[C@@H](CCCCN)CN(CC(=O)N[C@@H](CCCCN)CN(CC(=O)N[C@@H](CCCCN)CN(CC(N)=O)S(=O)(=O)Cc1ccccc1)S(=O)(=O)Cc1ccccc1)S(=O)(=O)Cc1ccccc1)S(=O)(=O)Cc1ccccc1)S(=O)(=O)Cc1ccccc1)S(=O)(=O)Cc1ccccc1)S(=O)(=O)Cc1ccccc1)S(=O)(=O)Cc1ccccc1"
  target.under.test: "Pseudomonas aeruginosa"
  MIC: "> 50 µg/mL"
- chemical.structure: "NCCCC[C@@H](CN(CC(N)=O)S(=O)(=O)CCN)NC(=O)CN(C[C@@H](N)Cc1ccccc1)S(=O)(=O)Cc1ccccc1"
  target.under.test: "Pseudomonas aeruginosa"
  MIC: "> 50 µg/mL"

Please find the next molecule below.
Query :: Return reported MIC; argument: `NCCCC[C@@H](CN(CC(N)=O)S(=O)(=O)CCN)NC(=O)CN(C[C@H](Cc1ccccc1)NC(=O)CN(C[C@H](Cc1ccccc1)NC(=O)CN(C[C@H](Cc1ccccc1)NC(=O)CN(C[C@H](CCCCN)NC(=O)CN(C[C@H](Cc1ccccc1)NC(=O)CN(C[C@@H](N)Cc1ccccc1)S(=O)(=O)CCN)S(=O)(=O)Cc1ccccc1)S(=O)(=O)CCN)S(=O)(=O)Cc1ccccc1)S(=O)(=O)CCN)S(=O)(=O)Cc1ccccc1`
Result :: 12 µg/mL

* * *

- Tested on: Pseudomonas aeruginosa
- method.notes: Antimicrobial activity against Pseudomonas aeruginosa ATCC 27853 after 16 hrs
- Type: functional
- test.parameters: ATCC 27853, 16 h
experimental.endpoint: MIC

Query :: Return reported MIC; argument: `CC(=O)N[C@@H](CC(C)C)CN(CC(=O)N[C@@H](CC(C)C)CN(CC(=O)N[C@@H](CC(C)C)CN(CC(=O)N[C@@H](CC(C)C)CN(CC(=O)N[C@@H](CC(C)C)CN(CC(=O)N[C@@H](CC(C)C)CN(CC(=O)N[C@@H](CC(C)C)CN(CC(=O)N[C@@H](CC(C)C)CN(CC(N)=O)S(=O)(=O)CCN)S(=O)(=O)CCN)S(=O)(=O)CCN)S(=O)(=O)CCN)S(=O)(=O)CCN)S(=O)(=O)CCN)S(=O)(=O)CCN)S(=O)(=O)CCN`
Result :: > 50 µg/mL

* * *

- Tested on: Pseudomonas aeruginosa
- method.notes: Antimicrobial activity against Pseudomonas aeruginosa ATCC 27853 after 16 hrs
- Type: functional
- test.parameters: ATCC 27853, 16 h
experimental.endpoint: MIC (µg/mL)
Give bare numbers, in µg/mL.

- chemical.structure: "NCCCC[C@@H](CN(CC(N)=O)S(=O)(=O)CCN)NC(=O)CN(C[C@H](Cc1ccccc1)NC(=O)CN(C[C@H](Cc1ccccc1)NC(=O)CN(C[C@H](Cc1ccccc1)NC(=O)CN(C[C@H](CCCCN)NC(=O)CN(C[C@H](Cc1ccccc1)NC(=O)CN(C[C@H](Cc1ccccc1)NC(=O)CN(C[C@@H](N)Cc1ccccc1)S(=O)(=O)Cc1ccccc1)S(=O)(=O)CCN)S(=O)(=O)Cc1ccccc1)S(=O)(=O)CCN)S(=O)(=O)Cc1ccccc1)S(=O)(=O)CCN)S(=O)(=O)Cc1ccccc1"
  target.under.test: "Pseudomonas aeruginosa"
  MIC [µg/mL]: 4
- chemical.structure: "CC(=O)N[C@@H](CC(C)C)CN(CC(=O)N[C@@H](CC(C)C)CN(CC(=O)N[C@@H](CC(C)C)CN(CC(=O)N[C@@H](CCCCN)CN(CC(=O)N[C@@H](CC(C)C)CN(CC(=O)N[C@@H](CC(C)C)CN(CC(=O)N[C@@H](CC(C)C)CN(CC(=O)N[C@@H](CCCCN)CN(CC(N)=O)S(=O)(=O)CCN)S(=O)(=O)CC(C)C)S(=O)(=O)CCN)S(=O)(=O)CC(C)C)S(=O)(=O)CCN)S(=O)(=O)CC(C)C)S(=O)(=O)CCN)S(=O)(=O)CC(C)C"
  target.under.test: "Pseudomonas aeruginosa"
  MIC [µg/mL]: 50
- chemical.structure: "NCCCC[C@@H](CN(CC(N)=O)S(=O)(=O)CCN)NC(=O)CN(C[C@H](Cc1ccccc1)NC(=O)CN(C[C@H](Cc1ccccc1)NC(=O)CN(C[C@H](Cc1ccccc1)NC(=O)CN(C[C@H](CCCCN)NC(=O)CN(C[C@@H](N)Cc1ccccc1)S(=O)(=O)Cc1ccccc1)S(=O)(=O)CCN)S(=O)(=O)Cc1ccccc1)S(=O)(=O)CCN)S(=O)(=O)Cc1ccccc1"
  target.under.test: "Pseudomonas aeruginosa"
  MIC [µg/mL]: 25

Please find the next molecule below.
Query :: Return reported MIC; argument: `NCCCC[C@H](N)CN(CC(=O)N[C@@H](Cc1ccccc1)CN(CC(=O)N[C@@H](CCCCN)CN(CC(=O)N[C@@H](Cc1ccccc1)CN(CC(=O)N[C@@H](CCCCN)CN(CC(=O)N[C@@H](Cc1ccccc1)CN(CC(=O)N[C@@H](CCCCN)CN(CC(=O)N[C@@H](Cc1ccccc1)CN(CC(N)=O)S(=O)(=O)Cc1ccccc1)S(=O)(=O)CCN)S(=O)(=O)Cc1ccccc1)S(=O)(=O)Cc1ccccc1)S(=O)(=O)Cc1ccccc1)S(=O)(=O)CCN)S(=O)(=O)Cc1ccccc1)S(=O)(=O)Cc1ccccc1`
Result :: 15

Each recorded value in this set is attributed to ChEMBL document CHEMBL3576840.
